Values from ChEMBL document CHEMBL1153211

Biological target: C-C chemokine receptor type 5 (Homo sapiens)
Assay: Antagonist activity at human CCR5
Entries annotated with measured pIC50
Formally, pIC50 is defined as -log10 of the concentration c, with c in mol/L.

Some molecules with known pIC50 results, for comparison:
{"columns": ["molecule", "target_system", "pIC50"],
 "data": [
  ["Cc1ncnc(C)c1C(=O)N1C[C@H]2CN(CCC3(c4ccccc4)CN(C(=O)C4CCCC4)C3)C[C@H]2C1", "C-C chemokine receptor type 5 (Homo sapiens)", 7.17],
  ["Cc1ncnc(C)c1C(=O)N1C[C@H]2CN(CCC3(c4ccccc4)CN(C(=O)C4CCOC4)C3)C[C@H]2C1 (some centres not stated)", "C-C chemokine receptor type 5 (Homo sapiens)", 7.26],
  ["Cc1ccnc(C)c1C(=O)N1C[C@H]2CN(CCC3(c4ccccc4)CN(C(=O)C4CCC(F)(F)CC4)C3)C[C@H]2C1", "C-C chemokine receptor type 5 (Homo sapiens)", 7.42],
  ["Cc1ncnc(C)c1C(=O)N1C[C@H]2CN(CCC3(c4ccccc4)CN(C(=O)C4CC(F)(F)C4)C3)C[C@H]2C1", "C-C chemokine receptor type 5 (Homo sapiens)", 7.52],
  ["Cc1ncnc(C)c1C(=O)N1C[C@H]2CN(CCC3(c4cccc(F)c4)CCN(C(=O)C(C)C)CC3)C[C@H]2C1", "C-C chemokine receptor type 5 (Homo sapiens)", 6.99]
]}

Next up:
Field pIC50 (system: C-C chemokine receptor type 5 (Homo sapiens)) for entry `Cc1cc(C(F)(F)F)nc(C)c1C(=O)N1C[C@H]2CN(CCC3(c4ccccc4)CN(C(=O)C4CC(F)(F)C4)C3)C[C@H]2C1` = 7.66

====

Molecular target: C-C chemokine receptor type 5 (Homo sapiens, UniProt P51681)
Sequence (P51681 whole entry): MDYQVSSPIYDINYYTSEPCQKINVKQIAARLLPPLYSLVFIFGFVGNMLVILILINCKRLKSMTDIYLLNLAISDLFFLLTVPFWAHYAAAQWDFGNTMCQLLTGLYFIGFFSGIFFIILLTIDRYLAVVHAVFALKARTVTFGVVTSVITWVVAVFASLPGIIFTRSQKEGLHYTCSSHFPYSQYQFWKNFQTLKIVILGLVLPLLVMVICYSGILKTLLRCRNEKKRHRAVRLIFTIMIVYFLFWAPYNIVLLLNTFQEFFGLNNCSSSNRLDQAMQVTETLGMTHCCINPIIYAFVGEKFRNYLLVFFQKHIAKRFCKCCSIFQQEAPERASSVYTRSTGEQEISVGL
Test: Antagonist activity at human CCR5
recorded_metric: log10(IC50) (log10 of the value in nM)
Remember, log10 of IC50, in nM.

{"columns": ["compound", "measured"],
 "data": [
  ["Cc1cc(C#N)nc(C)c1C(=O)N1C[C@H]2CN(CCC3(c4cccc(F)c4)CCN(C(=O)C(C)(C)C)CC3)C[C@H]2C1", 1.18],
  ["Cc1ncnc(C)c1C(=O)N1C[C@H]2CN(CCC3(c4ccccc4)CCN(C(=O)C(C)(C)C)C3)C[C@H]2C1 (stereo not given in full)", 2.38],
  ["Cc1ccnc(C)c1C(=O)N1C[C@H]2CN(CCC3(c4ccccc4)CN(C(=O)C4CC(F)(F)C4)C3)C[C@H]2C1", 1.78],
  ["Cc1nc(C(F)(F)F)nc(C)c1C(=O)N1C[C@H]2CN(CCC3(c4ccccc4)CN(C(=O)C4CCOC4)C3)C[C@H]2C1 (stereo not given in full)", 1.58]
]}

Next up:
For reference, reported log10(IC50) for `Cc1nc(C(F)(F)F)nc(C)c1C(=O)N1C[C@H]2CN(CCC3(c4ccccc4)CN(C(=O)C4CC(F)(F)C4)C3)C[C@H]2C1` stands at 1.82

====

Test: Apparent permeability from apical to basolateral side of human Caco-2 cells after 21 days
Entries annotated with measured Papp A→B
Record the value in ×10⁻⁶ cm/s, omitting the unit from your answer.

{"columns": ["molecule", "Papp A→B [×10⁻⁶ cm/s]"],
 "data": [
  ["Cc1cc(C#N)nc(C)c1C(=O)N1C[C@H]2CN(CCC3(c4cccc(F)c4)CCN(C(=O)C(C)(C)C)CC3)C[C@H]2C1", 2.73],
  ["Cc1cc(C(F)(F)F)nc(C)c1C(=O)N1C[C@H]2CN(CCC3(c4ccccc4)CN(C(=O)C4CC(F)(F)C4)C3)C[C@H]2C1", 1.59],
  ["Cc1cc(C#N)nc(C)c1C(=O)N1C[C@H]2CN(CCC3(c4ccccc4)CN(C(=O)C4CCC(F)(F)CC4)C3)C[C@H]2C1", 0.53],
  ["Cc1ncnc(C)c1C(=O)N1C[C@H]2CN(CCC3(c4cccc(F)c4)CCN(C(=O)C(C)(C)C)CC3)C[C@H]2C1", 2.98],
  ["Cc1cc(C(F)(F)F)nc(C)c1C(=O)N1C[C@H]2CN(CCC3(c4ccccc4)CN(C(=O)C4CCC(F)(F)CC4)C3)C[C@H]2C1", 1.72]
]}

For reference, reported Papp A→B for `Cc1cc(C#N)nc(C)c1C(=O)N1C[C@H]2CN(CCC3(c4ccccc4)CN(C(=O)C4CC(F)(F)C4)C3)C[C@H]2C1` stands at 0.44

For reference, reported Papp A→B for Cc1cc(C#N)nc(C)c1C(=O)N1C[C@H]2CN(CCC3(c4ccccc4)CCN(C(=O)C4CCCC4)C3)C[C@H]2C1 (some centres not stated) stands at 2.55
